Hey, just so you know, these numbers are from PubChem BioAssay (NCI).

System: RPMI-8226 leukemia
EXPERIMENT DESCRIPTION: NCI-60 one-dose screen, 48 h
MEASUREMENT PARAMETERS: 10 µM unless noted
Procedure: Growth inhibition of the RPMI-8226 human tumor cell line is measured as a screen for anti-cancer activity. Cells are grown in 96 well plates and exposed to the test compound for 48 hours. Compounds are tested at a single concentration, which is 10^-5 M for most compounds. The reported endpoint is percent growth (GI% or GIPRCNT), where numbers from 0 - 100% represent growth inhibition, and numbers from -100% - 0 represent cell death. For example, a value of 40 represents 60% growth inhibition. […]
Compounds without any hit were thinned out: in the full panel of roughly 83,000, 20% have a hit. Calls of active or inactive are those of the source. Rule for the calls: active = growth percent below 10; inactive = the rest.
Outcomes: T (active), F (inactive)

GIVEN SMILES	DISCRETE LABEL
O=C1NC(=O)C(=Cc2cn(C(=O)c3ccccc3)c3ccccc23)C(=O)N1	F
Cc1ccc(N2COOC3(OOC2)C2CC4CC(C2)CC3C4)cc1	F
CC[C@H](C)[C@H](NC(=O)[C@H]1CCCCN1C)C(=O)N(C)[C@H](CC(=O)c1nc(C(=O)N[C@@H](Cc2ccccc2)C[C@H](C)C(=O)O)cs1)C(C)C	F
CC(=O)Oc1ccccc1C(=O)NCCC[Se]C#N	F
CC(C)=CCc1c(O)c(C(=O)CC(C)C)c(O)c2c(-c3ccccc3)cc(=O)oc12	T

----------
Recorded measurements of growth, one per entry
Test system: HL-60(TB) leukemia
EXPERIMENT DESCRIPTION: NCI-60 one-dose screen, 48 h (100 = growth as untreated, 0 = no growth, -100 = all killed)
MEASUREMENT PARAMETERS: 10 µM unless noted
Compounds without any hit were thinned out: in the full panel of roughly 83,000, 20% have a hit.

MOLECULE	growth, %
O=C(NCCN1CC1)C(=O)NCCN1CC1	63.1
C[C@]12C[C@@H](CO)[C@H](O)C[C@@H]1CC[C@@H]1[C@@H]2CC[C@]2(C)[C@@H](O)CC[C@@H]12	71
O=C(CC1(O)C(=O)Nc2ccccc21)c1ccc(C(=O)NCC2CCC3(CC2)OOC2(CCCCC2)OO3)cc1 (centres undefined)	31.7
COC(=O)[C@@H](C)C[C@H](Cc1ccccc1)NC(=O)c1csc([C@@H](C[C@H](C(C)C)N(C)C(=O)[C@@H](NC(=O)[C@H]2CCCCN2C)c2ccc(F)cc2)OC(C)=O)n1	-42.6

----------
Tested on: HOP-92 NSCLC
EXPERIMENT DESCRIPTION: NCI-60 one-dose screen, 48 h (100 = growth as untreated, 0 = no growth, -100 = all killed)
MEASUREMENT PARAMETERS: 10 µM unless noted
This is part of a sample that, as a whole, favours compounds with a hit. Of some 83,000 tested, about 20% had one in any assay.
Mark each entry True if its growth sits below 80%, and False for all others.

COMPOUND	DISCRETE LABEL
Brc1ccc2c(c1)c(-c1nc(-c3c[nH]c4ncccc34)cs1)cn2CCN1CCOCC1	True
CC1(C)N=C(N)N=C(N)N1c1ccc(CCC(=O)Nc2ccc(S(=O)(=O)F)cc2)c(Cl)c1	True
COc1cc(/C=C/[N+](=O)[O-])c([N+](=O)[O-])cc1OC	False
CC[C@]12C=CCN3CC[C@]4(C(=C(C(=O)OC)C1)Nc1cc(OC)c(OC(C)=O)cc14)[C@@H]32	True
COc1ccc(/C(C)=C(\c2ccc(OCCN3CCOCC3)cc2)c2ccc(OC(=O)Cc3ccccc3)cc2)cc1	False
Cc1cc(NC(=O)NCc2ccc(N3C(N)=NC(N)=NC3(C)C)cc2)ccc1S(=O)(=O)F	False
COc1ccc(Nc2ccc([N+](=O)[O-])cc2[N+](=O)[O-])cc1CN(CCCl)CCCl	True
CCCCCCCCCCCCCCCCCCOc1ccccc1COP(=O)(O)OOCC[N+](C)(C)C	True
C[N+](C)(C)Cc1cc(Cl)ccc1O	False
COC1OC(CO)C(O)C(O)[CH]1[Hg][O]C(C)=O (stereo not given)	False
O=C1C2CCC1C(N1CCCC1)CC2 (stereo not given)	False
O=C(O)C(Cl)(Cl)C(F)(F)F	False
C[C@@]1(CCCCCCCCCc2ccc(O)cc2)C[C@]2(C)OC(=O)C[C@@H]2OO1	False
CCCOC(=O)N[C@H]1CCc2c(Br)c(OC)c(OC)c(OC)c2-c2ccc(SC)c(=O)cc21	True
COC(=O)[C@@H](C)C[C@H](Cc1cn(C)c2ccccc12)NC(=O)c1csc([C@@H](C[C@H](C(C)C)N(C)C(=O)[C@@H](NC(=O)[C@H]2CCCCN2C)C(C)C)OC(C)=O)n1	True
CC1=C(CNO)C2=C(C)C3(CC3)[C@@](C)(O)C(=O)C2=C1	True
CCCCCCCCCCCCCCCCCC1OC[C@@H](COC(=O)O[C@@H](C(=O)O[C@H]2C[C@@]3(O)[C@@H](OC(=O)c4ccccc4)[C@@H]4[C@]5(OC(C)=O)CO[C@@H]5C[C@H](O)[C@@]4(C)C(=O)[C@H](OC(C)=O)C(=C2C)C3(C)C)[C@@H](NC(=O)c2ccccc2)c2ccccc2)O1 (stereo not given in full)	True
C/C(=C\c1ccn(-c2ccc(N)cc2C(F)(F)F)n1)[C@@H]1C[C@@H]2O[C@]2(C)CCC[C@H](C)[C@H](O)[C@@H](C)C(=O)C(C)(C)[C@@H](O)CC(=O)O1	True
Fc1ccc(N2COOC3(OOC2)C2CC4CC(C2)CC3C4)cc1	True
COc1cc(C=Nc2cccc(C(=O)O)c2)ccc1N(CCCl)CCCl	False
COc1ccc(S(=O)(=O)N(Cc2ccc3c(c2)C=CC(C)(C)O3)c2ccccc2)cc1OC	False
CC(=O)OC[C@]1(C)C=C2C(=O)[C@](C)(O)C3(CC3)C(C)=C2[C@H]1O	True
CC[C@H](C)[C@H](NC(=O)NC(C)(C)C)C(=O)N(C)[C@H](C[C@@H](OC(C)=O)c1nc(C(=O)N[C@@H](Cc2ccccc2)C[C@H](C)C(=O)OC)cs1)C(C)C	True
Cc1c(NS(=O)(=O)c2ccccc2)ccc([N+](=O)[O-])c1Cl	True
COc1ccc(/C=C\c2cc(OC)c(OC)c(OC)c2)cc1NC(=O)/C=C/c1ccc(OC)c(OC)c1	False
O=C(CN1CCN(C(=O)c2ccco2)CC1)Nc1ccc(Cl)cc1C(=O)c1ccccc1Cl	True
COc1ccc2c(c1)c(C1(O)CC(CSC#N)OC1=O)cn2C(=O)c1ccc(Cl)cc1 (stereo not given)	False
CC1(C)N=C(N)N=C(N)N1c1ccc(CCCCc2ccc(Cl)c(S(=O)(=O)F)c2)c(Cl)c1	True
COC(=O)[C@@H](C)C[C@H](Cc1ccccc1)NC(=O)c1csc([C@@H](C[C@H](C(C)C)N(C)C(=O)[C@@H](NC(=O)[C@H]2CCCCN2C)C2CCCCC2)OC(C)=O)n1	True
CO[C@H]1CC[C@@]2(C)C(=CC[C@@H]3[C@@H]2CC[C@]2(C)C(=O)C(=O)C[C@@H]32)C1	False
CC(=O)O[C@H](C[C@H](C(C)C)N(C)C(=O)[C@@H](NC(=O)[C@H]1CCCCN1C)C(C)C)c1nc(C(=O)NC2CCC(C(=O)O)CC2)cs1 (stereo not given in full)	True
N#CC1(c2ccccc2)CCN(Cc2ccccc2)CC1	True
[Cl][Hg][c]1cc(Br)cc(Br)c1	True
